target: human GPR40 receptor (Homo sapiens (Human), UniProt O14842); assay: IP1 accumulation measurements using the IPOne assay system; conditions: 1321N1 cells stably expressing human GPR40, 1 h stimulation
Sequence (O14842 whole entry): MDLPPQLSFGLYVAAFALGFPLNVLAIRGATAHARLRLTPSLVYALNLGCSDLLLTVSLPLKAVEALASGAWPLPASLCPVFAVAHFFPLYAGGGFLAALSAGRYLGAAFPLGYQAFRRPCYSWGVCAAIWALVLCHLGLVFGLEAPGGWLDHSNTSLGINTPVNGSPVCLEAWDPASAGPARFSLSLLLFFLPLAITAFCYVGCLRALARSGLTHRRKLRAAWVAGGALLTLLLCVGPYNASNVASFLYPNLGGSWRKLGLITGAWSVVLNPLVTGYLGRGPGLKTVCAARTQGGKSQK
property: EC50 (nM)
The reply should contain only the number, in nM.

Task item: # query: EC50 of entry `Cc1cc(-c2cc(=O)n(C)cn2)cc(C)c1-c1ccc(F)c2c1CC[C@H]2Nc1cc2c(cn1)[C@H](CC(=O)O)CO2`
Reply: 14

Task item: # query: EC50 of entry `Cc1cc(-c2nnn(C)n2)cc(C)c1-c1cccc2c1CC[C@H]2Nc1cc2c(cn1)[C@@H](CC(=O)O)CO2`
Reply: 378

Task item: # query: EC50 of entry Cc1cc(OCC2CCOC2)cc(C)c1-c1ccc(F)c2c1CC[C@H]2Nc1cc2c(cn1)[C@H](CC(=O)O)CO2 (stereo partly shown)
Reply: 27

Task item: # query: EC50 of entry `Cc1cc(O[C@H]2CCOC2)cc(C)c1-c1ccc(F)c2c1CC[C@H]2Nc1cc2c(cn1)[C@H](CC(=O)O)CO2`
Reply: 73

Task item: # query: EC50 of entry `Cc1cc(-c2nnn(CC(C)(C)O)n2)cc(C)c1-c1ccc(F)c2c1CC[C@H]2Nc1cc2c(cn1)[C@H](CC(=O)O)CO2`
Reply: 9

Task item: # query: EC50 of entry `Cc1cc(-c2nnn(C)n2)cc(C)c1-c1cccc2c1CC[C@H]2Nc1cc2c(cn1)[C@H](CC(=O)O)CO2`
Reply: 7

Task item: # query: EC50 of entry `Cc1cc(-c2nnn(C)n2)cc(C)c1-c1ccc(F)c2c1CC[C@H]2Nc1cc2c(cn1)[C@@H](CC(=O)O)CO2`
Reply: 382

###

The next entries give measured pIC50 for UniProtKB P10632.
Sequence (P10632 whole entry): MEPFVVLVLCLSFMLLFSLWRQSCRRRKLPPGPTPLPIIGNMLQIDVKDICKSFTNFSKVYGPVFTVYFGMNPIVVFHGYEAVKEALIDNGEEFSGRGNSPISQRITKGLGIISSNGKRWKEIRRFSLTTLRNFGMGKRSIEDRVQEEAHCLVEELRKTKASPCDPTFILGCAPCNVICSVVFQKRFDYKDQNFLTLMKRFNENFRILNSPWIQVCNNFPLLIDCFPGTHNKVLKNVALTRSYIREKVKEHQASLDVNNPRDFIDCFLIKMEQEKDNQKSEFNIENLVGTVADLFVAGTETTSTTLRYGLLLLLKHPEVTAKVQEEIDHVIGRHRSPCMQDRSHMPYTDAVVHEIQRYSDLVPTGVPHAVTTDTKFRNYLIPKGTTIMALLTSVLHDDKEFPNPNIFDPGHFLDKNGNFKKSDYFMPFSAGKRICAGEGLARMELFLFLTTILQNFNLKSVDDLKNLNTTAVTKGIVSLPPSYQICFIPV
Please report pIC50 as the negative decimal logarithm of the molar concentration, giving only the number.

# compound, tested.on, pIC50
records = [
    ("Cc1cc(OCCC(C)(C)O)cc(C)c1-c1ccc(F)c2c1CC[C@H]2Nc1cc2c(cn1)[C@H](CC(=O)O)CO2 [Example 1]", "UniProtKB P10632", 4.52),
]

Task item: So what pIC50 did Cc1cc(-c2nnn(C)n2)cc(C)c1-c1ccc(F)c2c1CC[C@H]2Nc1cc2c(cn1)[C@H](CC(=O)O)CO2 [Example 5] get with UniProtKB P10632?
Reply: 4.46

Task item: So what pIC50 did Cc1cc(OCCC(C)(C)O)cc(C)c1-c1ccc(F)c2c1CC[C@H]2Oc1ccc2c(c1)OC[C@H]2CC(=O)O [Example 16 in WO 2013/144098, reference compound] get with UniProtKB P10632?
Reply: 5.30

###

Each entry below carries its reported IC50.
target: cytochrome P450 2C9-isoenzyme (Homo sapiens (Human))
Sequence (P11712 whole entry): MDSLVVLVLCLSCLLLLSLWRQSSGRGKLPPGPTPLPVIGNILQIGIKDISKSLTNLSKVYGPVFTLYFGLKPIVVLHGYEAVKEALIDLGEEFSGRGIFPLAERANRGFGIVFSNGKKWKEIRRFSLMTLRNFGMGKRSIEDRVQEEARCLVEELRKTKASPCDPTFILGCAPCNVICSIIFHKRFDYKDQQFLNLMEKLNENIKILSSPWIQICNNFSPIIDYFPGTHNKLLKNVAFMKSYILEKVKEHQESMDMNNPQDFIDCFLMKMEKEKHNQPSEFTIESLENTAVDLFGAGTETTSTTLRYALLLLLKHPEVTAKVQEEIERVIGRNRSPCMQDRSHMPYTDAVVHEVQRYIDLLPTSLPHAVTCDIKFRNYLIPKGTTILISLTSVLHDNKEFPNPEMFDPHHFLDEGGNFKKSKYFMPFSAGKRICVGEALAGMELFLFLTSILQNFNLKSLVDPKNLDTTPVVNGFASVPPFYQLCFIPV

# given.smiles, IC50
rows = [
    ("Cc1cc(OCCC(C)(C)O)cc(C)c1-c1ccc(F)c2c1CC[C@H]2Nc1cc2c(cn1)[C@H](CC(=O)O)CO2", "> 50 µM"),
]

Now for a further compound.
Task item: # query: IC50 of entry `Cc1cc(-c2nnn(C)n2)cc(C)c1-c1ccc(F)c2c1CC[C@H]2Nc1cc2c(cn1)[C@H](CC(=O)O)CO2`
Reply: > 50 µM

###

Each entry below carries its reported EC50.
target: human GPR40 receptor (Homo sapiens (Human)); assay: IP1 accumulation measurements using the IPOne assay system; conditions: 1321N1 cells stably expressing human GPR40, 1 h stimulation
The reply should contain only the number, in nM.

Worked set:
# given.smiles, meas.value
data = [
    ("Cc1cc(OCCC(C)(C)O)cc(C)c1-c1cccc2c1CC[C@H]2Nc1cc2c(cn1)[C@H](CC(=O)O)CO2", 21),
    ("Cc1cc(OCC(C)(C)O)cc(C)c1-c1ccc(F)c2c1CC[C@H]2Nc1cc2c(cn1)[C@H](CC(=O)O)CO2", 35),
    ("Cc1cc(-c2ccn(C)c(=O)c2)cc(C)c1-c1ccc(F)c2c1CC[C@H]2Nc1cc2c(cn1)[C@H](CC(=O)O)CO2", 12),
    ("Cc1cc(OC2CCOCC2)cc(C)c1-c1ccc(F)c2c1CC[C@H]2Nc1cc2c(cn1)[C@H](CC(=O)O)CO2", 56),
    ("Cc1cc(OCC2(C)COC2)cc(C)c1-c1ccc(F)c2c1CC[C@H]2Nc1cc2c(cn1)[C@H](CC(=O)O)CO2", 37),
]

Task item: # query: EC50 of entry `Cc1cc(O[C@@H]2CCOC2)cc(C)c1-c1ccc(F)c2c1CC[C@H]2Nc1cc2c(cn1)[C@H](CC(=O)O)CO2`
Reply: 57

Task item: # query: EC50 of entry `Cc1cc(-c2nnn(C)n2)cc(C)c1-c1ccc(F)c2c1CC[C@H]2Nc1cc2c(cn1)[C@H](CC(=O)O)CO2`
Reply: 6

Task item: # query: EC50 of entry `Cc1cc(OCCC(C)(C)O)cc(C)c1-c1cccc2c1CC[C@H]2Nc1cc2c(cn1)[C@@H](CC(=O)O)CO2`
Reply: 751

Task item: # query: EC50 of entry `Cc1cc(OCCC(C)(C)O)cc(C)c1-c1ccc(F)c2c1CC[C@H]2Nc1cc2c(cn1)[C@@H](CC(=O)O)CO2`
Reply: 764

###

assay: Aqueous solubility; assay type: physicochemical; conditions: aqueous buffer, kinetic from dmso stock, buffer pH 2.2, 24 h shaking, 2.5% DMSO
property: solubility at 24 h

Worked set:
# compound, solubility at 24 h
records = [
    ("Cc1cc(OCCC(C)(C)O)cc(C)c1-c1ccc(F)c2c1CC[C@H]2Nc1cc2c(cn1)[C@H](CC(=O)O)CO2", "> 94 µg/mL"),
    ("Cc1cc(-c2nnn(C)n2)cc(C)c1-c1ccc(F)c2c1CC[C@H]2Nc1cc2c(cn1)[C@H](CC(=O)O)CO2", "47 µg/mL"),
    ("Cc1cc(-c2nnn(C)n2)cc(C)c1-c1ccc(F)c2c1CC[C@H]2Oc1ccc2c(c1)OC[C@H]2CC(=O)O [Example 138 in WO 2013/144098, reference compound]", "< 1 µg/mL"),
]

Now for a further compound.
Task item: # query: solubility at 24 h of entry Cc1cc(OCCC(C)(C)O)cc(C)c1-c1ccc(F)c2c1CC[C@H]2Oc1ccc2c(c1)OC[C@H]2CC(=O)O [Example 16 in WO 2013/144098, reference compound]
Reply: < 1 µg/mL

###

Each entry below carries its reported EC50.
target: UniProt:O14842; experiment: IP1 accumulation measurements using the IPOne assay system; settings: 1321N1 cells stably expressing human GPR40, 1 h stimulation
The reply should contain only the number, in µM.

Worked set:
# molecule, unit.of.measurement, EC50
rows = [
    ("Cc1cc(-c2ccn(C)c(=O)n2)cc(C)c1-c1ccc(F)c2c1CC[C@H]2Nc1cc2c(cn1)[C@H](CC(=O)O)CO2 [Example 16]", "µM", 0.027),
    ("Cc1cc(OCCC(C)(C)O)cc(C)c1-c1ccc(F)c2c1CC[C@H]2Nc1cc2c(cn1)[C@H](CC(=O)O)CO2 [Example 1]", "µM", 0.015),
    ("Cc1cc(-c2ccc(=O)n(C)c2)cc(C)c1-c1ccc(F)c2c1CC[C@H]2Nc1cc2c(cn1)[C@H](CC(=O)O)CO2 [Example 19]", "µM", 0.027),
]

Now for a further molecule.
Task item: # query: EC50 of entry Cc1cc(-c2cnccn2)cc(C)c1-c1ccc(F)c2c1CC[C@H]2Nc1cc2c(cn1)[C@H](CC(=O)O)CO2 [Example 20]
Reply: 0.009
